Tested on: purified human Hsp90
assay.procedure: Binding Assay: fluorescence polarization with BODIPY-labeled geldanamycin
measurement.setup: 5 μM compound, BODIPY-GM 10 nM, Hsp90 30 nM
measurement.type: % Inhibition at 5 μM Compound Concentration (%)

Reference set, count: 3
Nc1ncnc2c1nc(Sc1ccc3c(c1)OCO3)n2CCCc1ccccc1 [Example 6] | 66
Nc1ncnc2c1nc(Sc1ccc3c(c1)OCO3)n2CCCn1cccc1 [Example 51] | 52
COc1ccc(OC)c(Sc2nc3c(N)ncn(CCC4CC(C)(C)NC(C)(C)C4)c-3n2)c1 [Example 360] | 5

(a) Nc1ncn(CCc2ccccc2)c2nc(Sc3ccc(NC=O)c(O)c3)nc1-2 [Example 268]
(b) COc1ccc(OC)c(Sc2nc3c(N)ncn(CC(O)c4ccc(Cl)cc4Cl)c-3n2)c1 (centres unmarked) [Example 108]
Param pair: a , b . Output: the one whose % Inhibition at 5 μM Compound Concentration is numerically greater. Kindly state the label of the option you pick. b

###

test.target: purified human Hsp90
assay.procedure: Binding Assay: fluorescence polarization with BODIPY-labeled geldanamycin
measurement.setup: BODIPY-GM 10 nM, Hsp90 30 nM
pIC50: −log10 of the molar value.
measurement.type: pIC50

Cc1ccc(C)c(CCn2c(Sc3cc4c(cc3Br)OCO4)nc3c(N)ncnc32)c1 | 6.66
Nc1ncnc2c1nc(Sc1cc3c(cc1Br)OCO3)n2CC[C@H]1CCCNC1 | 7.46
CC1(C)CC(CCn2c(Sc3cc4c(cc3Br)OCO4)nc3c(N)ncnc32)CC(C)(C)N1 | 6.60

(A) CC(C)C[C@H](NC(=O)OC(C)(C)C)C(=O)N1CCC(CCn2c(Sc3cc4c(cc3Br)OCO4)nc3c(N)ncnc32)CC1
(B) Nc1ncnc2c1nc(Sc1nc3cccc(Cl)c3s1)n2CCC1CCN(C=O)CC1
# argmax over pIC50 for candidates A and B Indicate which entry you chose by stating its label. B
(B: 7.22, A: 6.22)

###

test.target: purified human Hsp90
assay.procedure: Binding Assay: fluorescence polarization with BODIPY-labeled geldanamycin
measurement.setup: BODIPY-GM 10 nM, Hsp90 30 nM
measurement.type: IC50

The following compounds have reported results that may help.
COc1ccc(OC)c(Sc2nc3c(N)ncn(CCc4ccccc4Cl)c-3n2)c1 | > 10 µM
COc1ccc(OC)c(Sc2nc3c(N)ncn(CCc4ccc(OC)c(OC)c4)c-3n2)c1 | > 10 µM

Fill in the blank: the reported IC50 of COc1cc(Sc2nc3c(N)nc(F)nc3n2CCc2c(Cl)cccc2Cl)c(Cl)c(OC)c1OC is ____. > 25 µM

Which IC50 value is on record for Nc1ncnc2c1nc(Sc1cc3c(cc1Br)OCO3)n2CCN1CCN(C2CCCC2)CC1 ? > 3 µM

###

test.target: purified human Hsp90
assay.procedure: Binding Assay: fluorescence polarization with BODIPY-labeled geldanamycin
measurement.setup: BODIPY-GM 10 nM, Hsp90 30 nM
pIC50: −log10 of the molar value.
// pIC50 lookup, one value per entry

Some compounds with recorded pIC50:
CC(=O)N1CCC(CCn2c(Sc3nc4ccc([N+](=O)[O-])cc4s3)nc3c(N)ncnc32)CC1 | < 5.30
CC1=NNC(=O)C1CCn1c(Sc2cc3c(cc2Br)OCO3)nc2c(N)ncnc21 (stereo not drawn) | < 4.60
COc1cccc(Sc2nc3c(N)ncnc3n2CC(=O)c2ccccc2)c1 | < 4.60
COc1ccc(OC)c(Sc2nc3c(N)ncnc3n2CCc2ccc(Cl)cc2Cl)c1 | < 5.00
CC(=O)N1CCC(CCn2cnc(N)c3nc(Sc4cc5c(cc4C#N)OCO5)nc2-3)CC1 | < 5.30

Entry CC(C)(C)OC(=O)Nc1ccc(CCn2c(Sc3cc4c(cc3Br)OCO4)nc3c(N)ncnc32)cc1 has what pIC50? < 4.60

Sample CC(C)(C)OC(=O)N1CCCC[C@H]1C(=O)N1CCC(CCn2c(Sc3cc4c(cc3Br)OCO4)nc3c(N)ncnc32)CC1 — what was its pIC50? < 5.30

# pIC50 lookup, item COc1ccc(Sc2nc3c(N)ncnc3n2CCC2CCN(C(C)=O)CC2)cc1F < 5.30

Using the record for CC(=O)N1CCC(CCn2c(Sc3nc4cc(Cl)ccc4s3)nc3c(N)ncnc32)CC1 , report its pIC50. < 5.30
